Please respond with reported IC50 for every item in the list.
Measurement Target: human plasma kallikrein (Homo sapiens, UniProt P03952)
Sequence (P03952 391-638 limits assumed): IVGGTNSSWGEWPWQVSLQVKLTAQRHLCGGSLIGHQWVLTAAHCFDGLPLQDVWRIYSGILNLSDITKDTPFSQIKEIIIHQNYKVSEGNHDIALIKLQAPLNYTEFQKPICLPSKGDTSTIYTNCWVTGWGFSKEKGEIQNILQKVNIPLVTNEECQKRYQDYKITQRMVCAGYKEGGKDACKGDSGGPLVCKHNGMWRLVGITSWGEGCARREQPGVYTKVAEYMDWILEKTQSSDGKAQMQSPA
Sequence (P03952 20-390 partner limits assumed): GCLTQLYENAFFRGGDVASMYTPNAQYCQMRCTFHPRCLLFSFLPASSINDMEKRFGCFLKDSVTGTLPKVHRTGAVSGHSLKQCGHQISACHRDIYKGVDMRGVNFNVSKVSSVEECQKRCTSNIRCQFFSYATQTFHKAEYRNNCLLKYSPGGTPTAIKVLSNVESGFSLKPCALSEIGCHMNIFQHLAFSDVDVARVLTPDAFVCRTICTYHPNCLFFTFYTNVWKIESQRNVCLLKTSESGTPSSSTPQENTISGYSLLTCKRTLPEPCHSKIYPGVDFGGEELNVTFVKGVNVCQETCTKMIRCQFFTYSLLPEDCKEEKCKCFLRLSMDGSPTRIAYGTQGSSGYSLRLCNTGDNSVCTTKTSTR
Test: Anti-plasma kallikrein activity: prevention of S-2302 decomposition
Measurement Context: Table III, known compounds of Table II; substrate S-2302; *1: 0% Inhibition at the given concentration; read-out: I50 Plasma Kallikrein S-2302

Solved entries:
substance_smiles=NCCCC[C@H](NC(=O)c1ccccc1)C(N)=O reading="> 1000 µM"
substance_smiles=NCCCC[C@H](NS(=O)(=O)c1ccccc1)C(N)=O reading="> 1000 µM"

Query: For the molecule `NCCCCCC(=O)N[C@@H](CCCCN)C(=O)O` , what IC50 is on record?
Response: > 1000 µM

---

Sequence of the target: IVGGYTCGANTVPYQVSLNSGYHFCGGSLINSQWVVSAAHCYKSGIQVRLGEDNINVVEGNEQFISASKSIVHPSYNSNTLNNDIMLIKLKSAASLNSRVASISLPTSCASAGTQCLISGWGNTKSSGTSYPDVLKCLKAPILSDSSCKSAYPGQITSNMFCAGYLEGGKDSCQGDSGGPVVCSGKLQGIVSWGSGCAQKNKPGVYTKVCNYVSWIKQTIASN
pIC50: −log10 of the molar value.
Measure Name: pIC50

Query: Given the compound NCCCCCC(=O)N[C@@H](CCCCN)C(=O)O [Compound No. 7] , what is its reported pIC50?
Response: < 3.70

---

Measurement Target: Plasmin (Homo sapiens)
Test: biochemical
Measurement Context: Table III, known compounds of Table II; fibrin dissolution time extended twice; *1: 0% Inhibition, *2: 19% Inhibition at the concentration; read-out: I50 Plasmin Fibrin
Hi there, I'd appreciate the recorded IC50 for every entry that follows.

Some solved cases for reference:
substance_smiles=NCCCC[C@H](NS(=O)(=O)c1ccccc1)C(N)=O reading="> 1000 µM"
substance_smiles=Cc1ccc(S(=O)(=O)N[C@@H](CCCCN)C(=O)O)cc1 reading="1000 µM"

Report IC50 for every entry below.
1. NCCCC[C@H](NC(=O)c1ccccc1)C(N)=O
2. NCCCCCC(=O)N[C@@H](CCCCN)C(=O)O

Response:
1: > 1000 µM; 2: > 1000 µM

---

Hi there, I'd appreciate the recorded IC50 for every entry that follows.
Measurement Target: Plasmin (Homo sapiens, UniProt P00747)
Sequence (P00747 581-810 limits assumed): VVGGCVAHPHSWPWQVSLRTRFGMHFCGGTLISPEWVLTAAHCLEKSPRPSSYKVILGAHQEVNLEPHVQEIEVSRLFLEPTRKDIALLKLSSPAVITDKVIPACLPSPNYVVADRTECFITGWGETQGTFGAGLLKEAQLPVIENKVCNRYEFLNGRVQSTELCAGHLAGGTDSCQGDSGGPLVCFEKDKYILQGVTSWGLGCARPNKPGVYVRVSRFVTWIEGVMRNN
Sequence (P00747 97-580 partner limits assumed): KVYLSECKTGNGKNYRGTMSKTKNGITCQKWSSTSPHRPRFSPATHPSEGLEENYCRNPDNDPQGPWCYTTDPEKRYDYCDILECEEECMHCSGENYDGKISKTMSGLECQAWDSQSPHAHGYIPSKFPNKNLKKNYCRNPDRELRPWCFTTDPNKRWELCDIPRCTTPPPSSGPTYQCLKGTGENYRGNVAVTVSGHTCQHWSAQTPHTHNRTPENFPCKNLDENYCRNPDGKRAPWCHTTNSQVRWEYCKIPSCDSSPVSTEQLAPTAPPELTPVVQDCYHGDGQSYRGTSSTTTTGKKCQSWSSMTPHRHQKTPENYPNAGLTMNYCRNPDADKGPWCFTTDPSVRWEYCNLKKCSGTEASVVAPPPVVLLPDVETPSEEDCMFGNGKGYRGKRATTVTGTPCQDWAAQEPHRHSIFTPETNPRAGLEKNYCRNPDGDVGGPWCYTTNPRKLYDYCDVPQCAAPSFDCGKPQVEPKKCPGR
Test: biochemical
Measurement Context: Table IV, present compounds; plasmin, fibrin decomposition; read-out: I50 Fibrin
Give bare numbers, in µM.

Example entries begin here.
compound="CC1CCCN(C(=O)[C@H](CCCCN)NS(=O)(=O)c2cccc3c(N(C)C)cccc23)C1 (stereo partly shown)" measure_name=IC50 units_symbol=µM reading=730
compound=Cc1ccc(S(=O)(=O)N[C@@H](CCCCN)C(=O)N2CCC(Cc3ccccc3)CC2)cc1 measure_name=IC50 units_symbol=µM reading=150
compound=CCOC(=O)c1ccc(NC(=O)[C@H](CCCCN)NS(=O)(=O)c2ccc(C)cc2)cc1 measure_name=IC50 units_symbol=µM reading=540

Pending compound:
Query: Sample `Cc1ccc(S(=O)(=O)N[C@H](CCCCN)C(=O)Nc2ccc(C(=O)c3ccccc3)cc2)cc1` — what was its IC50?
Response: 1000

---

Measurement Target: bovine thrombin (Bos taurus)
Test: Antithrombin activity: prevention of S-2238 decomposition
Format: biochemical
Measurement Context: Table III, known compounds of Table II; substrate S-2238; *1: 0% Inhibition at the given concentration; read-out: I50 Thrombin S-2238
pIC50: −log10 of the molar value.
Give measured pIC50 for each item. Keep answers brief.

// below: answered molecules
molecule="NCCCC[C@H](NC(=O)c1ccccc1)C(N)=O [Compound No. 8]" reading="< 3.00"
molecule="NCCCC[C@H](NS(=O)(=O)c1ccccc1)C(N)=O [compound 4]" reading="< 3.00"

Proceed to the following item.
Query: Given NCCCCCC(=O)N[C@@H](CCCCN)C(=O)O [Compound No. 7] , state its recorded pIC50.
Response: < 3.00

---

Measurement Target: Plasmin (Homo sapiens, UniProt P00747)
Test: biochemical
Measurement Context: Table IV, present compounds; plasmin, fibrin decomposition; read-out: I50 Fibrin
Counter-ions that a name gives are not always drawn.
Exercise: for every item that follows, state its recorded pIC50.
Answers are plain numbers, as −log10 of the molar value.

molecule=Cc1ccc(S(=O)(=O)N[C@@H](CCCCN)C(=O)Nc2ccc(Oc3ccccc3)cc2)cc1 measure_name=pIC50 reading=3.82
molecule=Cc1ccc(S(=O)(=O)N[C@@H](CCCCN)C(=O)Nc2ccc(Cl)c(Cl)c2)cc1 measure_name=pIC50 reading=3.72
molecule="Cc1ccc(S(=O)(=O)N[C@@H](CCCCN)C(=O)Nc2ccc([N+](=O)[O-])cc2)cc1 [Compound No. 3, hydrochloride]" measure_name=pIC50 reading=3.11

Batch of 2 molecules: report pIC50 for each.
1. CCOC(=O)c1cc(NC(=O)[C@H](CCCCN)NS(=O)(=O)c2cccc3ccccc23)cc(C(=O)OCC)c1
2. CCOC(=O)c1c(C)cc(NC(=O)[C@H](CCCCN)NS(=O)(=O)c2ccc(C)cc2)cc1C

Response:
1. 4.12
2. 3.36

---

Please go through the items and note down their log10 of IC50.
Measurement Target: Plasmin (Homo sapiens, UniProt P00747)
Test: biochemical
Measurement Context: Table IV, present compounds; plasmin, substrate S-2251; read-out: I50 S-2251
Square brackets hold non-standard residues; d marks the D form. Peptide text beside a SMILES is read from it. * marks the point of attachment. dPhg = N[C@@H](C(=O)O)c1ccccc1; Tos = Cc1ccc(S(=O)(=O)*)cc1
Form field - Quantity: IC50; Unit: µM; Scale: log10

molecule=Cc1ccc(S(=O)(=O)N[C@@H](CCCCN)C(=O)Nc2cccc(Cl)c2)cc1 measure_name="log10 of IC50" reading=2.78
molecule="CCOC(=O)[C@H](NC(=O)[C@H](CCCCN)NS(=O)(=O)c1ccc(C)cc1)c1ccccc1 [compound 22] (Tos-Lys-[dPhg]-OEt)" measure_name="log10 of IC50" reading=2.81
molecule=Cc1ccc(S(=O)(=O)N[C@@H](CCCCN)C(=O)Nc2ccc(C(=O)c3ccccc3)cc2)cc1 measure_name="log10 of IC50" reading=2.15

Please give log10 of IC50, item by item, for the list that follows.
1. CN(C)c1cccc2c(S(=O)(=O)N[C@@H](CCCCN)C(=O)N3CCC(Cc4ccccc4)CC3)cccc12
2. Cc1ccc(S(=O)(=O)N[C@@H](CCCCN)C(=O)Nc2ccc(C(F)(F)F)cc2)cc1
3. CCOC(=O)c1c(C)cc(NC(=O)[C@H](CCCCN)NS(=O)(=O)c2ccc(C)cc2)cc1C
4. CCOC(=O)c1cc(NC(=O)[C@H](CCCCN)NS(=O)(=O)c2cccc3ccccc23)cc(C(=O)OCC)c1
5. Cc1ccc(S(=O)(=O)N[C@@H](CCCCN)C(=O)Nc2ccc(Cl)c(Cl)c2)cc1

Response:
1. 2.11
2. 2.78
3. 2.77
4. 2.59
5. 2.57

---

Measurement Target: Plasmin (Homo sapiens)
Test: biochemical
Measurement Context: Table IV, present compounds; plasmin, fibrin decomposition; read-out: I50 Fibrin
Measure Name: pIC50
One number for each entry, as −log10 of the molar value.

Examples from the recorded data:
substance_smiles=Cc1ccc(S(=O)(=O)N[C@@H](CCCCN)C(=O)Nc2ccc(C(F)(F)F)cc2)cc1 measurement_target="Plasmin (Homo sapiens)" reading=3.37
substance_smiles=Cc1ccc(S(=O)(=O)N[C@@H](CCCCN)C(=O)Nc2cccc(C#N)c2)cc1 measurement_target="Plasmin (Homo sapiens)" reading=3.47
substance_smiles=NCCCC[C@H](NS(=O)(=O)c1cccc2ccccc12)C(=O)Nc1ccc([N+](=O)[O-])cc1 measurement_target="Plasmin (Homo sapiens)" reading=3.51

We next turn to a different compound, shown below.
Query: Any idea what pIC50 was measured for `Cc1ccc(S(=O)(=O)N[C@@H](CCCCN)C(=O)Nc2cccc(Cl)c2)cc1` ?
Response: 3.46

---

I'd appreciate it if you could supply pIC50 values for the items below.
Measurement Target: bovine thrombin (Bos taurus)
Test: Antithrombin activity: inhibition of fibrin formation from fibrinogen (coagulation time)
Type: biochemical
Measurement Context: Table III, known compounds of Table II; coagulation time extended twice; *1: 0% Inhibition at the given concentration; read-out: I50 Thrombin Fibrinogen
pIC50: −log10 of the molar value.

Use these answered entries as a reference point.
molecule="NCCCC[C@H](NS(=O)(=O)c1ccccc1)C(N)=O [compound 4]" reading="< 3.00"
molecule="NCCCC[C@H](NC(=O)c1ccccc1)C(N)=O [Compound No. 8]" reading="< 3.00"

Query: // query pIC50 value for entry NCCCCCC(=O)N[C@@H](CCCCN)C(=O)O [Compound No. 7]
Response: < 3.00

---

Please provide measured pIC50 for the entries that follow.
Measurement Target: UniProt:P00747
Test: Antiplasmin activity: prevention of fibrinogen decomposition
Assay type: biochemical
Measurement Context: Table IV, present compounds, read-out: I50 Fibrinogen
Where a name gives a salt, the structure may show the parent alone.
Answers are plain numbers, as −log10 of the molar value.

Please review the following examples before continuing.
compound="Cc1ccc(S(=O)(=O)N[C@@H](CCCCN)C(=O)Nc2ccc(C(=O)c3ccccc3)cc2)cc1 [compound 36]" measure_name=pIC50 reading=3.70
compound="CCOC(=O)c1cc(NC(=O)[C@H](CCCCN)NS(=O)(=O)c2cccc3ccccc23)cc(C(=O)OCC)c1 [Compound No. 11]" measure_name=pIC50 reading=4.10

Moving on to the next compound.
Query: Form field: reported pIC50 of Cc1ccc(S(=O)(=O)N[C@@H](CCCCN)C(=O)Nc2ccc([N+](=O)[O-])cc2)cc1 [Compound No. 3, hydrochloride]
Response: 3.05
